system: L1210 leukemia ip in BDF1 mice, survival T/C; assay: NCI In Vivo Anticancer Drug Screen. Data for tumor model L1210 Leukemia (intraperitoneal) in B6D2F1 (BDF1) mice; settings: endpoint: mean survival time; dose: 200.0 mg/kg/injection; schedule: Q04DX003 (ip); vehicle: saline; higher = longer survival
Inconclusive results and toxic doses are left out.
test_readout: T/C

# count of solved cases: 3
CCN(CC)C(C)CN1c2ccccc2Sc2ccccc21 (centres undefined) = 93 % of control
NCCc1ccc(O)c(O)c1 = 101 % of control
CC(=O)Oc1c(Br)c(-c2c(C)cc(C)c(Br)c2C)c(OC(C)=O)c(Br)c1-c1c(C)cc(C)c(Br)c1C = 95 % of control

Query: Given the molecule "CCC(CC)(COC(C)=O)C[N+](C)(C)C" , write its reported T/C.
Reply: 102 % of control

Query: For the molecule "ClCC#Cc1ccccc1" , give its reported T/C.
Reply: 92 % of control

Query: Specify reported T/C for the molecule shown: "Cc1ccc(N2CSC(=S)N(c3ccc(C)cc3)C2)cc1"
Reply: 89 % of control

Query: Tell me T/C reported for O=S(Cc1ncc2cnccn12)c1ccccc1 (centres undefined)
Reply: 105 % of control

Query: Give recorded T/C. O=C(O)C1C[n+]2ccccc2O1 (centres undefined)
Reply: 103 % of control

Query: State its T/C: "O=C1Nc2ccccc2C1=O"
Reply: 99 % of control

Query: Specify measured T/C for CC1SC(N)=NC1=O (centres undefined) .
Reply: 103 % of control

Query: For "CCNCC" , write its T/C.
Reply: 101 % of control

Query: Could you please provide reported T/C for "O=c1[nH]ccn2cncc12" ? Thanks!
Reply: 103 % of control

Query: Input "O=C(CSc1ccc([N+](=O)[O-])cc1)c1ccc(Br)cc1" , output reported T/C.
Reply: 90 % of control

Query: Consider the molecule "CCOP(=O)(Cc1ccccc1)OCC" and give its recorded T/C.
Reply: 103 % of control

---

test system: L1210 leukemia ip in BDF1 mice, survival T/C; experiment: NCI In Vivo Anticancer Drug Screen. Data for tumor model L1210 Leukemia (intraperitoneal) in B6D2F1 (BDF1) mice; conditions: endpoint: mean survival time; dose: 100.0 mg/kg/injection; schedule: Q04DX003 (ip); vehicle: Klucel (hydroxypropylcellulose) (HPC); higher = longer survival
Toxic doses and inconclusive results are not listed.
test_readout: T/C

Query: Output T/C of "O=[N+]([O-])c1cc(C(F)(F)F)ccc1Oc1ccc(Cl)cc1"
Reply: 96 % of control

Query: Tell me measured T/C for "C=COCCCCOC=C" please.
Reply: 113 % of control

Query: Provide T/C value for the following compound: "CCCCOC(=O)CCCC(=O)OCCCC"
Reply: 100 % of control

Query: Note down T/C recorded for "O=c1n(-c2ccccc2)c(=O)n(-c2ccccc2)c(=O)n1-c1ccccc1"
Reply: 89 % of control

Query: Report measured T/C; entry is "Cc1nc(C)c([N+](=O)[O-])s1"
Reply: 100 % of control

Query: // Input: "O=C1c2ccccc2-c2cc(-c3ccccc3)cc(-c3ccccc3)c21" . Output its T/C only.
Reply: 104 % of control

Query: Indicate its recorded T/C; the compound in question is "Nc1ncnc(N)c1NC(=O)CCCc1ccccc1"
Reply: 86 % of control

---

tested on: L1210 leukemia ip in BDF1 mice, survival T/C; test: NCI In Vivo Anticancer Drug Screen. Data for tumor model L1210 Leukemia (intraperitoneal) in B6D2F1 (BDF1) mice; settings: endpoint: mean survival time; dose: 100.0 mg/kg/injection; schedule: Q01DX009 (ip); vehicle: Klucel (hydroxypropylcellulose) (HPC); higher = longer survival
Toxic doses and inconclusive results are not listed.
test_readout: T/C

O=C(O)Cc1ccc(N=Nc2c(O)c(C(=O)O)cc3ccccc23)cc1 = 96 % of control
Cc1nc(N)[nH]c(=O)c1Br = 97 % of control
N#CC(C(=O)c1ccccc1)(C(=O)c1ccccc1)c1cccc2ccccc12 = 95 % of control
COc1ccc(OC)c2c1CCCC2 = 106 % of control
O=C(Nc1ccc(F)cc1)Nc1ccccc1C(F)(F)F = 95 % of control
CN(CCc1ccccc1)/N=N/c1[nH]ncc1C(N)=O = 103 % of control
Clc1nc(Nc2ccccc2)c2ccccc2n1 = 95 % of control
O=c1c2ccccc2nc(-c2ccccc2)n1/N=C/c1ccccc1O = 103 % of control

Query: Fill in T/C for "CN(C)c1ccc(C(=S)c2ccc(N(C)C)nc2)cn1" tested with L1210 leukemia ip in BDF1 mice, survival T/C.
Reply: 102 % of control

Query: Give T/C only, for "COc1ccc(OC)c(NC(=O)N(C)CCC#N)c1" , using L1210 leukemia ip in BDF1 mice, survival T/C data.
Reply: 106 % of control

Query: Provide the reported T/C (system: L1210 leukemia ip in BDF1 mice, survival T/C) for "Cc1ccc(S(=O)(=O)C(Cl)(Cl)Cl)cc1"
Reply: 97 % of control

Query: Determine reported T/C for "NC(=O)c1ccccc1NC(=O)Nc1cc(C(F)(F)F)ccc1Cl" ; test system: L1210 leukemia ip in BDF1 mice, survival T/C.
Reply: 96 % of control

---

test system: L1210 leukemia ip in BDF1 mice, survival T/C; assay: NCI In Vivo Anticancer Drug Screen. Data for tumor model L1210 Leukemia (intraperitoneal) in B6D2F1 (BDF1) mice; settings: endpoint: mean survival time; dose: 50.0 mg/kg/injection; schedule: Q01DX001 (ip); vehicle: other; higher = longer survival
Inconclusive results and toxic doses are left out.
test_readout: T/C

CN(C)C=Nc1ccc(Cl)cc1 = 101 % of control
CCCCCCCCCCCCNCc1ccc(O)cc1 = 93 % of control
O=C(Nc1csnn1)c1ccco1 = 104 % of control

Turning to the following compound.
Query: Let me know recorded T/C for "CCCNP(=S)(NCCC)NCCC" , thanks.
Reply: 96 % of control

---

test system: L1210 leukemia ip in BDF1 mice, survival T/C; assay: NCI In Vivo Anticancer Drug Screen. Data for tumor model L1210 Leukemia (intraperitoneal) in B6D2F1 (BDF1) mice; conditions: endpoint: mean survival time; dose: 40.0 mg/kg/injection; schedule: Q01DX001 (ip); vehicle: saline; higher = longer survival
Toxic doses and inconclusive results are not listed.
test_readout: T/C

O=[N+]([O-])c1ccc(C2=CSC3=NCCN23)cc1 = 97 % of control
c1cc(N2CCOCC2)cc(NC2CCCCC2)n1 = 103 % of control
CS(=O)(=O)Nc1ccc(Nc2c3ccccc3nc3cc(N)ccc23)cc1 = 89 % of control
CCCCc1ccncc1 = 90 % of control

Query: Retrieve T/C measured for "CC1(C)N=C(N)N=C(N)N1c1cccc(CCCCc2cccc(NC(=O)CBr)c2)c1" and print it.
Reply: 112 % of control

Query: Please supply the value of reported T/C for the item "COC(=O)/C=C(\C(=O)OC)n1ccccc1=O"
Reply: 102 % of control

---

system: L1210 leukemia ip in BDF1 mice, survival T/C; assay: NCI In Vivo Anticancer Drug Screen. Data for tumor model L1210 Leukemia (intraperitoneal) in B6D2F1 (BDF1) mice; details: endpoint: mean survival time; dose: 100.0 mg/kg/injection; schedule: Q01DX001 (ip); vehicle: other
Inconclusive results and toxic doses are left out. Cut-off read from the data, not from the text of the source: active = T/C of 150% or more; inactive = T/C below 125%.
A correct response names exactly one class from y = active, n = inactive

Worked cases, answers included:
CCCNP(=S)(NCCC)NCCC = n
CC1CC=C(C(=O)O)CC1 (stereo not drawn) = n
Cc1ccc(S(=O)(=O)OCCOCCOCCOCCOCCOCCOS(=O)(=O)c2ccc(C)cc2)cc1 = n
CC(=O)n1c(O)c(N=Nc2ccccc2[N+](=O)[O-])c2ccccc21 = n

Kindly consider the entry below.
Query: Could you check what this test reported for CC1(C)CC(=O)C2=C(C1)Nc1ccccc1CC2c1c[nH]c2ccccc12 (stereo not drawn) ?
Reply: n

---

Tested on: L1210 leukemia ip in BDF1 mice, survival T/C
Test: NCI In Vivo Anticancer Drug Screen. Data for tumor model L1210 Leukemia (intraperitoneal) in B6D2F1 (BDF1) mice
Conditions: endpoint: mean survival time; dose: 75.0 mg/kg/injection; schedule: Q01DX001 (ip); vehicle: acetone; higher = longer survival
Procedure: The antitumor activity of compounds was measured in mice bearing transplantable tumors. Survival or tumor size were measured and the results are expressed as the measurement made in the treated group (T) divided by the measurement made in the vehicle treated control group (C). The tumor model used in this assay is L1210 Leukemia (intraperitoneal) in B6D2F1 (BDF1) mice
Toxic doses and inconclusive results are not listed.
test_readout: T/C

Worked examples, 3 compounds total:
CN(CCc1ccccc1)C(N)=S = 96 % of control
CC(C)N(C(=S)[S-])C(C)C.CC(C)N(C(=S)[S-])C(C)C.[Zn] = 97 % of control
CC(C)C(N)C(=O)O (centres undefined) = 97 % of control

Now consider the entry below.
Query: Fill in reported T/C for this entry: CC1=C(C)C(C)(Cl)C1(C)Cl (centres undefined)
Reply: 108 % of control

# credit: PubChem BioAssay AID248
